Experiment: Human HepG2 cell viability assay in 384 well format
Assay type: toxicity, cell-based
Parameters: dose 125 nL, time 70.5 hour; concentration not given beside the values
Settings: HepG2 cells, read-out: Inhibition
READOUT: cytotoxicity at 70.5 h (%)

> print(dat)
                                    compound  unit.text  measured
 1  CC(NCc1cccc(NC(=O)C2CCCCC2)c1)c1cnn(C)c1 (stereo unspecified)          %     -9.44
 2  CC(C)CN1CCN(Cc2nc3ccccc3[nH]2)[C@H]2CS(=O)(=O)C[C@H]21          %     -11.1
 3          CCCn1ncc(CN(CCN(C)C)Cc2ccsc2)c1C          %      31.8
 4              Cc1cncc(C(=O)NCCSCc2cccs2)c1          %     -3.14
 5  CN(CCCOc1ccccc1)C(=O)c1csc(-c2nnc[nH]2)n1          %     -5.84
 6  CN(C)CCOCC1CN(Cc2ccsc2)Cc2ccnn2C1 (stereo unspecified)          %      3.88
 7  O=C(O)C1(Cc2ccccc2Cl)CCN(c2ncnc3[nH]ccc23)CC1          %      10.8
 8  c1ccc(CN(Cc2cccc3cnccc23)CC2CCCO2)nc1 (stereo unspecified)          %     -7.22
 9  CCOCCN1CCN(C(C)C(=O)Nc2ccnn2C(C)C)CC1 (stereo unspecified)          %     -3.46
10  CN(c1ccccc1)S(=O)(=O)c1cc2c(c(C(=O)O)c1)OCCO2          %     -9.42
11  CNS(=O)(=O)c1ccc(F)c(C(=O)NCc2ccnc(OC)c2)c1          %      25.8

----------
Assay: Human HepG2 cell viability assay in 384 well format
Type: toxicity, cell-based
Design: dose 125 nL, time 70.5 hour; concentration not given beside the values
Conditions: HepG2 cells, read-out: Inhibition
Measured cytotoxicity at 70.5 h values are reported for all entries that follow.
READOUT: cytotoxicity at 70.5 h (%)

> print(dat)
                                    molecule  measured
 1  Cc1cc(C)n(-c2nc(C(=O)NCCN3CCC(C)CC3)cs2)n1     -5.84
 2  CCc1nc(C(=O)N2CCN(CCc3ccc(OC)cc3)CC2)c[nH]1     -12.3
 3  CC(C)C(C)(C#N)NC(=O)Cn1cc(I)cn1 (stereo not given)     -3.37
 4        COCC(=O)N1CCC(c2n[nH]c3nccnc23)CC1     -7.45
 5  COCc1nc(CNC2CCSC2)no1 (stereo not given)     -2.87
 6  COCC1Cn2nnc(-c3cnn(C)c3)c2CN1Cc1ccsc1 (stereo not given)     -9.05
 7  Cc1cccc(C(C)NCC2CCS(=O)(=O)CC2)c1 (stereo not given)     -3.65
 8  N#Cc1ccc(C(=O)N2CC[C@H]3[C@@H]2CCC(=O)N3c2ccccc2)cc1       -12
 9            O=C(NCc1ccccc1Cn1cncn1)N1CCCC1     -12.2
10           O=C(O)c1nc(SCc2ccc(F)cc2)ncc1Br     -7.86
11  CN(C)CC(=O)N1CCCCC1c1nc(N)ncc1-c1ccccc1 (stereo not given)      5.62
12  CN(C)CC1CN(Cc2nnc(-c3ccccc3Cl)o2)CCO1 (stereo not given)      3.65
13    CC(=O)NCCNC(=O)C1(N2CCCCC2)Cc2ccccc2C1     -7.44
14  N#Cc1cccnc1NC1CCN(c2ccccc2OC(F)F)C1=O (stereo not given)      17.8
15            CCCN(Cc1ccc(OC)nc1)Cc1ccccc1OC      12.5
16  Cc1cc(S(=O)(=O)NCC(O)c2sccc2C)ccc1F (stereo not given)     -1.45
17  O=C(COc1coc(CN2CCOCC2)cc1=O)c1ccc(Cl)cc1     -9.03
18      COc1c(F)cc(NC(=O)NCc2nncn2C2CC2)cc1F     0.912
19  COc1ccc(N2Cc3nc(=O)n(Cc4cccc(F)c4)n3C2=O)cc1       -13
20  CC(C)OC(=O)NCc1ccc(NCc2cnn(C(C)(C)C)c2)cc1     -13.1
21       O=C1CCCCN1Cc1cccc(NC(=O)N2CCSCC2)c1     -6.83
22  Cc1cc(NC(=O)CN2C(=O)CC(C)(C)c3ccccc32)no1        -3
23  NC(=O)C(CNC(=O)CCc1ccsc1)Cc1ccc(F)cc1 (stereo not given)        21
24  O=S(=O)(C1CC1)N1CCC2(COCc3cnc(NCC4CC4)nc32)C1 (stereo not given)      -6.1
25  COCCc1noc(CNC(C)(CO)C2CCCCC2)n1 (stereo not given)    -0.882

----------
Test: Human HepG2 cell viability assay in 384 well format
Assay type: toxicity, cell-based
Set-up: dose 125 nL, time 70.5 hour; concentration not given beside the values
Details: HepG2 cells, read-out: Inhibition
Measured cytotoxicity at 70.5 h values are reported for all entries that follow.
READOUT: cytotoxicity at 70.5 h (%)

> print(dat)
                                   molecule                 readout  unit.text  measured
1  COc1ccccc1CCN(C)C(C)c1nc(-c2cccnc2)no1 (stereo unspecified)  cytotoxicity at 70.5 h          %      21.2
2  Cc1ncsc1-c1nnc(C2CCN(Cc3cccc(Cl)c3)CC2)o1  cytotoxicity at 70.5 h          %     -1.29
3  Cc1cnc2n(c1=O)CC(C(=O)Nc1cccc3cccnc13)CS2 (stereo unspecified)  cytotoxicity at 70.5 h          %     -5.53
4      CS(=O)(=O)NCc1cnc2n1CCN(Cc1ccoc1)CC2  cytotoxicity at 70.5 h          %     -9.11
5  CC(C)(C)c1ncc(CNCC2CCCN2c2cccnn2)s1 (stereo unspecified)  cytotoxicity at 70.5 h          %      5.55
6  CC(Oc1ccc(F)cc1F)C(=O)N1CCC2(CCCO2)CC1 (stereo unspecified)  cytotoxicity at 70.5 h          %        27

----------
Measured cytotoxicity at 70.5 h values are reported for all entries that follow.
Assay: Human HepG2 cell viability assay in 384 well format
Assay type: toxicity, cell-based
Design: dose 125 nL, time 70.5 hour; concentration not given beside the values
Settings: HepG2 cells, read-out: Inhibition
READOUT: cytotoxicity at 70.5 h (%)

> print(dat)
                                    compound  measured
 1        CSc1c[nH]nc1NS(=O)(=O)c1cc(F)ccc1C     -3.64
 2  Cc1cnn(CC2CCCN2C(=O)c2ccccc2-n2cccn2)c1 (configuration not stated)     -12.6
 3  CC(=O)NC[C@]1(O)CCN(C(=O)c2ccc3c(c2)CCC3)C[C@H]1O     -3.52
 4  c1cnc(N2CCCC3(COCCN(CC4CC4)C3)C2)nc1 (configuration not stated)       -10
 5  CC(=O)c1ccc(C(=O)NCCCOC(C)c2ccccc2)s1 (configuration not stated)       1.1
 6  Cc1cccc(N2CCN(C(=O)CCc3ccsc3)C(C)C2)n1 (configuration not stated)     -23.2
 7       COCCCNC(=O)c1ccccc1-n1cc(CN(C)C)cn1     -7.43
 8  Cc1cccc(CN2C[C@H]3OC(=O)N(CCCN4CCOCC4)[C@H]3C2)n1     -10.1
 9     O=C(NCC1CCCCC1)c1nnn(-c2ccc(Br)cc2)n1     -6.14
10  O=C(CSC1CCCC1)N1CCN(c2ccc(-n3cncn3)nn2)CC1     -2.51
11  Cc1cc(N(C)C)nc(C2(C)CCCNC2)n1 (configuration not stated)      18.9
12  CC(NCc1ccco1)c1nnc2n1CCCC2 (configuration not stated)     -5.13
13  CC[C@@H](Cn1ncc2ccccc2c1=O)NC(=O)c1cnc(C)cn1     -6.57
14  COCCc1noc(CN(C)C2CCCN(c3ccc(C)nn3)C2)n1 (configuration not stated)      24.4
15         CCOCC(=O)N1CCc2c(ncnc2N2CCOCC2)C1     -3.63
16  O=C(Nc1ccnc(OC2CCOC2)c1)C1CCC1 (configuration not stated)     -2.33
17  COCCNC(=O)c1cc(C2CC2)nc2onc(C3CCNC3)c12 (configuration not stated)     -7.31
18  CC(C)[C@H](NC(=O)N1CCN(c2ccc(Cl)cc2)CC1)C(=O)NC1CC1       -17
19          COCCCNC(=O)CN(C)C(=O)c1cc(C)sc1C       -14
20    CN(C)CCNc1ccc(-c2nc(COc3ccccc3)no2)cn1      3.62
21  CC(=O)N1CC[C@@H]2O[C@@H](COCC(=O)N3CCCC3)CC[C@@H]21      23.9
22     CCc1nc(CN2CCCN(C(=O)CCc3ccco3)CC2)cs1      27.3
23          CCc1noc(CN2CCN(C(=O)N(C)C)CC2)n1      20.5
24  CC(C)c1noc(C(C)N2CCN(c3ccc(C#N)cn3)CC2)n1 (configuration not stated)     -15.5
25  CC(COc1ccccc1)NS(C)(=O)=O (configuration not stated)      -1.8
26  Cc1cc(C)n(C(=O)c2cn(C)nc2S(=O)(=O)N2CCSCC2)n1     -7.57
27  CN1CCCC(N2CCN(c3cc(C(F)(F)F)ccn3)CC2)C1 (configuration not stated)     -5.61
28  COCCn1c(C(=O)NCC(C)C(=O)O)cc2ccccc21 (configuration not stated)     0.983
29  O=C(CCOc1ccc(F)cc1)N1CCCC1Cn1cccn1 (configuration not stated)     -2.78
30  Cc1nc(CO[C@@H]2CN(Cc3nccs3)[C@@H]3COC[C@@H]32)cs1     -6.11
31  Cc1ccccc1SC1CCN(C(=O)[C@H]2[C@@H]3CNC[C@@H]32)CC1     -1.38
32  NC(=O)c1ccc(-c2nc3c(c(=O)[nH]2)CCNC3)cc1      -2.1
33                  COc1cccc2c1ccn2CCNC(C)=O     -16.2
34  Cn1c(C(F)(F)F)nn(CCNC(=O)NCc2ccccc2)c1=O      16.5
35  CO[C@@H]1CC[C@@H](NC(=O)CCc2ccc(Cl)cc2)[C@H]1O     -7.81
36  Cc1ccc(-c2ncc(C(=O)NS(C)(=O)=O)s2)c(C)c1     -1.13
37           CC(C)N1CCC(Cn2cc(C(N)=O)cn2)CC1      11.9
38  O=C([C@H]1C[C@H]2OCC[C@H]2N(Cc2ccc(F)cc2)C1)N1CCCCO1      20.6
39  CC(=O)N1CCCC1c1nnn2cc(-c3ccncc3)ccc12 (configuration not stated)     -5.32
40  CCCc1n[nH]c(C2CN(CCCS(C)(=O)=O)CCO2)n1 (configuration not stated)     -4.54
41  NS(=O)(=O)NCc1cc(-c2ccco2)n(CC(F)(F)F)n1     -5.08
42  CN(C)c1ccc(CNC(=O)Nc2ccc(S(C)(=O)=O)nc2)cc1     -7.69
43       CN(C)C(=O)c1nn(C)c2c1CN(Cc1ccoc1)C2     -7.04
44  CC(C)Oc1cccc(C(O)CNC(=O)NCc2cccs2)c1 (configuration not stated)      3.68
45  CN(Cc1ccncc1)C1COC2(CCN(Cc3ccsc3)CC2)C1 (configuration not stated)     -15.1
46  O=C(NCCOc1ccc2c(c1)OCO2)C1CC(=O)N(C2CC2)C1 (configuration not stated)      3.82
47  CCN1CCOC(CNCc2ccccn2)C1 (configuration not stated)     -7.88
